Test: Pharmacokinetic study of 153 (and metabolite endothal) in SD rats, iv and po; plasma, liver, brain
Assay type: in vivo
Details: female, SD, rat, in vivo, iv, 1.25 mg/kg, iv 1.25 mg/kg, 2 hr, Rat 1; read-out: 153 brain concentration
Result type: concentration at 2 h (ng/g)
Answers are plain numbers, in ng/g.

Give the reported value of concentration at 2 h for this record: CCCOC(=O)C1C2CCC(O2)C1C(=O)N1CCN(C)CC1 (stereo not shown) [Compound 153]
4.05

###

Test: Pharmacokinetic study of 153 (and metabolite endothal) in SD rats, iv and po; plasma, liver, brain
Assay type: in vivo
Conditions: female, SD, rat, in vivo, iv, 1.25 mg/kg, 153 in plasma, IV 1.25 mg/kg, rat 2
Result type: AUC(0-inf) (ng·h/mL)
Answers are plain numbers, in ng·h/mL.

Look up and report measured AUC(0-inf) for this entry: CCCOC(=O)C1C2CCC(O2)C1C(=O)N1CCN(C)CC1 (stereo not shown)
288

###

Assay: Pharmacokinetic study of 100 (and metabolite endothal) in SD rats, iv; plasma, liver, brain
Conditions: female, SD, rat, in vivo, iv, 1.5 mg/kg, Endothal liver concentration, 100 iv 1.5 mg/kg, SD rats, 6 hr, mean
Result type: concentration at 6 h
Please report the result as a number followed by the unit.

Return concentration at 6 h (reported value) for this compound: O=C(O)C1C2CCC(O2)C1C(=O)O (stereo not shown) [Endothal]
1510 ng/g

###

Assay: in vivo
Set-up: species or system SD rats
Details: male, SD, rat, iv, 1.4 mg/kg, liver concentration of 113
Result type: concentration at 1 h (ng/g)
Answers are plain numbers, in ng/g.

Specify concentration at 1 h for CN1CCN(C(=O)C2C(C(=O)OCC(Cl)(Cl)Cl)[C@H]3CC[C@@H]2O3)CC1 (stereo partly shown) and stop.
14.6

###

Tested on: PP2A
Assay: PP2A activity in mouse brains after IP dosing (PP2A immunoprecipitation phosphatase assay, malachite green)
Assay type: in vivo, Balb/c mice
Set-up: unit not given here
Conditions: low dose IP (mpk: 100 0.75, 113 1.1, 151 0.8, 153 0.85, 157 1.0), 3 h, brain
Checkbox rule: Average Conc. (group of 3 mice) lower than 2000 = 1 (yes); Average Conc. (group of 3 mice) not lower than 2000 = 0 (no).

Here are 4 compounds together with their reported answers.
Is Average Conc. (group of 3 mice) of COC(=O)C1C2CCC(O2)C1C(=O)N1CCN(C)CC1 (centres unmarked) strictly below 2000?
1 (yes)

Record CCCCCCCOC(=O)C1C2CCC(O2)C1C(=O)N1CCN(C)CC1 (centres unmarked) : is its Average Conc. (group of 3 mice) strictly below 2000?
1 (yes)

In plain terms, does CN1CCN(C(=O)C2C3CCC(O3)C2C(=O)O)CC1 (centres unmarked) come in under 2000 for Average Conc. (group of 3 mice)?
1 (yes)

Report whether reported Average Conc. (group of 3 mice) is lower than 2000 (strictly) for CCCOC(=O)C1C2CCC(O2)C1C(=O)N1CCN(C)CC1 (centres unmarked)
0 (no)

As a next step, examine the compound that follows.
Average Conc. (group of 3 mice) under 2000? Item: CN1CCN(C(=O)C2C(C(=O)OCC(Cl)(Cl)Cl)[C@H]3CC[C@@H]2O3)CC1 (some centres unmarked)
1 (yes)

###

Assay: in vivo
Design: species or system SD rats
Conditions: male, Sprague-Dawley (SD), rat, po, 1.4 mg/kg
Result type: Tmax (min)
Give bare numbers, in min.

Given the compound CN1CCN(C(=O)C2C(C(=O)OCC(Cl)(Cl)Cl)[C@H]3CC[C@@H]2O3)CC1 (stereo partly shown) [Compound 113] , write its reported Tmax.
15

###

Test: Pharmacokinetic study of 153 (and metabolite endothal) in SD rats, iv and po; plasma, liver, brain
Assay type: in vivo
Conditions: female, SD, rat, in vivo, iv, 1.25 mg/kg, 153 in plasma, IV 1.25 mg/kg, rat 1; read-out: MRT (0-t)
Result type: MRT last (min)
One number for each entry, in min.

State its MRT last: CCCOC(=O)C1C2CCC(O2)C1C(=O)N1CCN(C)CC1 (stereo not shown)
40

###

Assay: Pharmacokinetic study of 153 (and metabolite endothal) in SD rats, iv and po; plasma, liver, brain
Assay type: in vivo
Conditions: female, SD, rat, in vivo, iv, 1.25 mg/kg, iv 1.25 mg/kg, 1 hr, Rat 2; read-out: 153 plasma concentration
Result type: concentration at 1 h (ng/mL)
Numbers only, in ng/mL.

Respond only with concentration at 1 h recorded for CCCOC(=O)C1C2CCC(O2)C1C(=O)N1CCN(C)CC1 (stereo not shown) [Compound 153]
51.4

###

Test: Pharmacokinetic study of 157 (and metabolite endothal) in SD rats, iv and po; plasma, liver, brain
Format: in vivo
Settings: female, Sprague-Dawley (SD), rat, in vivo, po, 1.5 mg/kg, PO 1.5 mg/kg, 0.5 hr, Rat 2
Result type: concentration at 0.5 h (ng/mL)
Give bare numbers, in ng/mL.

Provide one value: measured concentration at 0.5 h of CCCCCCCOC(=O)C1C2CCC(O2)C1C(=O)N1CCN(C)CC1 (stereo not shown) [Compound 157]
6.35

###

System: PP2A
Assay: PP2A activity in mouse brains after IP dosing (PP2A immunoprecipitation phosphatase assay, malachite green)
Format: in vivo, Balb/c mice
Details: high dose IP (mpk: 100 1.5, 113 2.2, 151 1.6, 153 1.7, 157 2.0), 3 h, brain
Can you tell me Average Relative Activity (group, vehicle = 100) for the items I'm about to list?
Answers are plain numbers.

Report Average Relative Activity (group, vehicle = 100) for COC(=O)C1C2CCC(O2)C1C(=O)N1CCN(C)CC1 (centres unmarked) [Compound 151]
87.89

For each of the molecules below, state Average Relative Activity (group, vehicle = 100).
1. CN1CCN(C(=O)C2C(C(=O)OCC(Cl)(Cl)Cl)[C@H]3CC[C@@H]2O3)CC1 (some centres unmarked) [Compound 113]
2. CN1CCN(C(=O)C2C3CCC(O3)C2C(=O)O)CC1 (centres unmarked) [Compound 100]
3. CCCCCCCOC(=O)C1C2CCC(O2)C1C(=O)N1CCN(C)CC1 (centres unmarked) [Compound 157]
4. CCCOC(=O)C1C2CCC(O2)C1C(=O)N1CCN(C)CC1 (centres unmarked) [Compound 153]

1: 60.76; 2: 80.09; 3: 54.50; 4: 65.73

###

Test: Pharmacokinetic study of 153 (and metabolite endothal) in SD rats, iv and po; plasma, liver, brain
Type: in vivo
Details: female, SD, rat, in vivo, iv, 1.25 mg/kg, iv 1.25 mg/kg, 0.25 hr, Mean; read-out: 153 brain concentration
Result type: concentration at 0.25 h (ng/g)
Answers are plain numbers, in ng/g.

For the compound CCCOC(=O)C1C2CCC(O2)C1C(=O)N1CCN(C)CC1 (stereo not shown) , give its reported concentration at 0.25 h.
42.7

###

Experiment: in vivo
Settings: female, Sprague-Dawley (SD), rat, in vivo, iv, 0.5 mg/kg, 100 brain concentration
Procedure: 100 was administrated via iv route at 0.5, 1.0 and 1.5 mg/kg into SD rats. The blood, liver and brain tissue samples were collected at predetermined times from rats. Twelve (12) female SD rats per group were dosed by iv with 100. The rats were fasted overnight prior to dosing, with free access to water. Foods were withheld for 2 hours post-dose. Blood, liver and brain tissue samples in two animals each group were collected at each time point, within 10% of the scheduled time for each time point. […]
Result type: concentration at 0.25 h
Could you write the number and then its unit?

Give concentration at 0.25 h for CN1CCN(C(=O)C2C3CCC(O3)C2C(=O)O)CC1 (stereo not shown)
15.3 ng/g

###

Test: Pharmacokinetic study of 100 (and metabolite endothal) in SD rats, iv; plasma, liver, brain
Conditions: female, SD, rat, in vivo, iv, 1 mg/kg, Endothal liver concentration, 100 iv 1.0 mg/kg, SD rats, 1 hr, mean
Result type: concentration at 1 h (ng/g)
One number for each entry, in ng/g.

Please look at this compound and report its concentration at 1 h: O=C(O)C1C2CCC(O2)C1C(=O)O (stereo not shown) [Endothal]
999

###

Experiment: in vivo
Settings: female, Sprague-Dawley (SD), rat, in vivo, iv, 1 mg/kg, 100 liver concentration
Result type: concentration at 1 h (ng/g)
Numbers only, in ng/g.

Please report the measured concentration at 1 h for CN1CCN(C(=O)C2C3CCC(O3)C2C(=O)O)CC1 (stereo not shown) [Compound 100]
865

###

Assay: in vivo
Conditions: female, Sprague-Dawley (SD), rat, in vivo, iv, 1.5 mg/kg, 100 liver concentration
Result type: concentration at 10 h (ng/g)
Answers are plain numbers, in ng/g.

Give reported concentration at 10 h value for CN1CCN(C(=O)C2C3CCC(O3)C2C(=O)O)CC1 (stereo not shown)
5.25
